List of IC50 values.
System: MYB
Assay: HiBiT protein abundance assay, MYB (K562 HiBiT knock-in)
Assay type: cell-based, human
Conditions: HiBiT knock-in K562 cells, 24 hours, top dose 10 μM

Some solved entries appear below for comparison.
compound=Cc1nc2c(F)c(O)c(-c3ccc4nc(N5CC[C@@H](NC6CC6)C5)ccc4n3)cc2o1 testedsystem=MYB testresult="< 0.1 µM"
compound=Cn1cc2cc(-c3ccc4nc(N5CC[C@H](NC6COC6)C5)ccc4n3)c(O)cc2n1 testedsystem=MYB testresult="1 to 10 µM"

Enquiry: Which IC50 value is on record for Cc1c(O)c(-c2ccc3nc(N4CC[C@@H](NC5(C)CC5)C4)ccc3n2)cc2cn(C)nc12 ?
Return: < 0.1 µM

Enquiry: Which IC50 value is on record for CNC(=O)c1nc(-c2cc(F)c3nc(C)cn3c2)nc2ccc(N3CCNCC3)cc12 ?
Return: < 0.1 µM

Enquiry: Which IC50 value is on record for Cn1cc2c(O)c(-c3ncc4nc(C5CCNCC5)ccc4n3)ccc2n1 ?
Return: 0.1 to 1 µM

Enquiry: Which IC50 value is on record for CN[C@H]1CCN(c2ccc3nc(-c4cc5cn(C)nc5cc4O)ccc3n2)C1 ?
Return: 0.1 to 1 µM

Enquiry: Which IC50 value is on record for Cc1c(O)c(-c2ccc3nc(N4CC[C@@H](NC5CCC5)C4)ccc3n2)cc2cn(C)nc12 (single isomer, unassigned) ?
Return: < 0.1 µM

Enquiry: Which IC50 value is on record for Cn1cc2cc(-c3ccc4nc(N5CCC(NC6CCC6)C5)ccc4n3)c(O)c(F)c2n1 (stereo not shown) ?
Return: < 0.1 µM

Enquiry: Which IC50 value is on record for Cc1c(O)c(-c2nc(C(=O)NC3CCC3)c3cc(N4C[C@@H](C)N[C@@H](C)C4)ccc3n2)cc2cn(C)nc12 ?
Return: < 0.1 µM

Enquiry: Which IC50 value is on record for CNC(=O)c1nc(-c2cc3cn(C)nc3c(C)c2O)nc2ccc(N3CCC(N(C)C)CC3)cc12 ?
Return: < 0.1 µM

Enquiry: Which IC50 value is on record for CN1CCC(c2ccc3nc(-c4cc5cn(C)nc5cc4O)ccc3n2)CC1 ?
Return: 0.1 to 1 µM

Enquiry: Which IC50 value is on record for CC(C)(C)NC1CCN(c2ccc3nc(-c4cc5cnccc5cc4O)ccc3n2)C1 (stereo not shown) ?
Return: > 10 µM

Enquiry: Which IC50 value is on record for Cc1nc2cc(O)c(-c3ccc4nc(N5CC[C@H](NC6(CF)CC6)C5)ccc4n3)cc2o1 (single isomer, unassigned) ?
Return: < 0.1 µM

Enquiry: Which IC50 value is on record for Cc1cn2nc(-c3ccc4nc(N5CCC(NC6CC6)C5)ccc4n3)c(O)c2c(C)n1 (stereo not shown) ?
Return: 0.1 to 1 µM

Enquiry: Which IC50 value is on record for Cc1nc2c(F)c(O)c(-c3ccc4nc(N5CC[C@H](NC6CCC6)C5)ccc4n3)cc2o1 (single isomer, unassigned) ?
Return: < 0.1 µM

Enquiry: Which IC50 value is on record for CNc1nc(-c2cc3cn(C)nc3c(C)c2O)nc2ccc(N3CCNCC3)cc12 ?
Return: 1 to 10 µM

---

List of IC50 values.
Test system: HTT
Assay: HiBiT protein abundance assay, HTT (K562 HiBiT knock-in)
Format: cell-based, human
Conditions: HiBiT knock-in K562 cells, 24 hours, top dose 10 μM

Some solved entries appear below for comparison.
compound="Cc1nc2cc(O)c(-c3ccc4nc(N5CCN6CCCC6C5)ccc4n3)cc2o1 (stereo not drawn) [Compound 410]" testedsystem=HTT measurementlabel=IC50 testresult="100 to 1000 nM"
compound="Cn1cc2cc(-c3ncc4nc(C5CCNCC5)ccc4n3)c(O)c(F)c2n1 [Compound 155]" testedsystem=HTT measurementlabel=IC50 testresult="< 100 nM"
compound="CN(C)C1CCN(c2ccc3nc(-c4cc5cn(C)nc5cc4O)ccc3n2)C1 (stereo not drawn) [Compound 129]" testedsystem=HTT measurementlabel=IC50 testresult="100 to 1000 nM"
compound="Cn1cc2cc(-c3ccc4nc(N5CCC(NC67CC(O)(C6)C7)C5)ccc4n3)c(O)cc2n1 (stereo not drawn) [Compound 341]" testedsystem=HTT measurementlabel=IC50 testresult="100 to 1000 nM"
compound="Cc1nc2c(C)c(O)c(-c3ccc4nc(N5CC[C@H](NC6(CF)CC6)C5)ccc4n3)cc2o1 (single isomer, unassigned) [Compound 378]" testedsystem=HTT measurementlabel=IC50 testresult="< 100 nM"
compound="CCN[C@H]1CCN(c2ccc3nc(-c4cc5cn(C)nc5cc4O)ccc3n2)C1 [Compound 179]" testedsystem=HTT measurementlabel=IC50 testresult="< 100 nM"
compound="Cn1cc2cc(-c3ccc4nc(N5CCC(NC67CC(C6)C7)C5)ccc4n3)c(O)cc2n1 (stereo not drawn) [Compound 297]" testedsystem=HTT measurementlabel=IC50 testresult="1000 to 10000 nM"
compound="Cc1nc2c(F)c(O)c(-c3ccc4nc(N5CC[C@H](NCC6CC6)C5)ccc4n3)cc2o1 (single isomer, unassigned) [Compound 324]" testedsystem=HTT measurementlabel=IC50 testresult="< 100 nM"
compound="Cc1c(O)c(-c2ccc3cc(N4CCNC5(CC5)C4)cc(F)c3n2)cc2cn(C)nc12 [Compound 805]" testedsystem=HTT measurementlabel=IC50 testresult="< 100 nM"
compound="CNC(=O)c1nc(-c2cc3cn(C)nc3c(F)c2O)nc2ccc(N3C[C@H](C)N[C@@H](C)C3)cc12 (single isomer, unassigned) [Compound 669]" testedsystem=HTT measurementlabel=IC50 testresult="100 to 1000 nM"

Enquiry: Which IC50 value is on record for Cn1cc2cc(-c3ccc4nc(N5CCC(N6CCCC6)C5)ccc4n3)c(O)cc2n1 (stereo not drawn) [Compound 125] ?
Return: 100 to 1000 nM

Enquiry: Which IC50 value is on record for Cc1cn2nc(-c3ccc4cc(N5C[C@H](C)N[C@@H](C)C5)cc(F)c4n3)cc(C)c2n1 (single isomer, unassigned) [Compound 799] ?
Return: 100 to 1000 nM

Enquiry: Which IC50 value is on record for Cc1c(O)c(-c2ccc3nc(N4CC[C@H](NC5(C)CC5)C4)ccc3n2)cc2cn(C)nc12 [Compound 226] ?
Return: < 100 nM

Enquiry: Which IC50 value is on record for Cc1nc2cc(O)c(-c3ccc4nc(C5CCNCC5)ccc4n3)cc2s1 [Compound 148] ?
Return: 1000 to 10000 nM

Enquiry: Which IC50 value is on record for Cc1cn2cc(-c3ccc4nc(C5CCNCC5)ccc4n3)c(O)cc2n1 [Compound 149] ?
Return: 1000 to 10000 nM
